# assayedTarget: Human Cav2.2 channels (Homo sapiens)
# Construct: expressed in transfected cells
# Sequence (Q00975 whole entry): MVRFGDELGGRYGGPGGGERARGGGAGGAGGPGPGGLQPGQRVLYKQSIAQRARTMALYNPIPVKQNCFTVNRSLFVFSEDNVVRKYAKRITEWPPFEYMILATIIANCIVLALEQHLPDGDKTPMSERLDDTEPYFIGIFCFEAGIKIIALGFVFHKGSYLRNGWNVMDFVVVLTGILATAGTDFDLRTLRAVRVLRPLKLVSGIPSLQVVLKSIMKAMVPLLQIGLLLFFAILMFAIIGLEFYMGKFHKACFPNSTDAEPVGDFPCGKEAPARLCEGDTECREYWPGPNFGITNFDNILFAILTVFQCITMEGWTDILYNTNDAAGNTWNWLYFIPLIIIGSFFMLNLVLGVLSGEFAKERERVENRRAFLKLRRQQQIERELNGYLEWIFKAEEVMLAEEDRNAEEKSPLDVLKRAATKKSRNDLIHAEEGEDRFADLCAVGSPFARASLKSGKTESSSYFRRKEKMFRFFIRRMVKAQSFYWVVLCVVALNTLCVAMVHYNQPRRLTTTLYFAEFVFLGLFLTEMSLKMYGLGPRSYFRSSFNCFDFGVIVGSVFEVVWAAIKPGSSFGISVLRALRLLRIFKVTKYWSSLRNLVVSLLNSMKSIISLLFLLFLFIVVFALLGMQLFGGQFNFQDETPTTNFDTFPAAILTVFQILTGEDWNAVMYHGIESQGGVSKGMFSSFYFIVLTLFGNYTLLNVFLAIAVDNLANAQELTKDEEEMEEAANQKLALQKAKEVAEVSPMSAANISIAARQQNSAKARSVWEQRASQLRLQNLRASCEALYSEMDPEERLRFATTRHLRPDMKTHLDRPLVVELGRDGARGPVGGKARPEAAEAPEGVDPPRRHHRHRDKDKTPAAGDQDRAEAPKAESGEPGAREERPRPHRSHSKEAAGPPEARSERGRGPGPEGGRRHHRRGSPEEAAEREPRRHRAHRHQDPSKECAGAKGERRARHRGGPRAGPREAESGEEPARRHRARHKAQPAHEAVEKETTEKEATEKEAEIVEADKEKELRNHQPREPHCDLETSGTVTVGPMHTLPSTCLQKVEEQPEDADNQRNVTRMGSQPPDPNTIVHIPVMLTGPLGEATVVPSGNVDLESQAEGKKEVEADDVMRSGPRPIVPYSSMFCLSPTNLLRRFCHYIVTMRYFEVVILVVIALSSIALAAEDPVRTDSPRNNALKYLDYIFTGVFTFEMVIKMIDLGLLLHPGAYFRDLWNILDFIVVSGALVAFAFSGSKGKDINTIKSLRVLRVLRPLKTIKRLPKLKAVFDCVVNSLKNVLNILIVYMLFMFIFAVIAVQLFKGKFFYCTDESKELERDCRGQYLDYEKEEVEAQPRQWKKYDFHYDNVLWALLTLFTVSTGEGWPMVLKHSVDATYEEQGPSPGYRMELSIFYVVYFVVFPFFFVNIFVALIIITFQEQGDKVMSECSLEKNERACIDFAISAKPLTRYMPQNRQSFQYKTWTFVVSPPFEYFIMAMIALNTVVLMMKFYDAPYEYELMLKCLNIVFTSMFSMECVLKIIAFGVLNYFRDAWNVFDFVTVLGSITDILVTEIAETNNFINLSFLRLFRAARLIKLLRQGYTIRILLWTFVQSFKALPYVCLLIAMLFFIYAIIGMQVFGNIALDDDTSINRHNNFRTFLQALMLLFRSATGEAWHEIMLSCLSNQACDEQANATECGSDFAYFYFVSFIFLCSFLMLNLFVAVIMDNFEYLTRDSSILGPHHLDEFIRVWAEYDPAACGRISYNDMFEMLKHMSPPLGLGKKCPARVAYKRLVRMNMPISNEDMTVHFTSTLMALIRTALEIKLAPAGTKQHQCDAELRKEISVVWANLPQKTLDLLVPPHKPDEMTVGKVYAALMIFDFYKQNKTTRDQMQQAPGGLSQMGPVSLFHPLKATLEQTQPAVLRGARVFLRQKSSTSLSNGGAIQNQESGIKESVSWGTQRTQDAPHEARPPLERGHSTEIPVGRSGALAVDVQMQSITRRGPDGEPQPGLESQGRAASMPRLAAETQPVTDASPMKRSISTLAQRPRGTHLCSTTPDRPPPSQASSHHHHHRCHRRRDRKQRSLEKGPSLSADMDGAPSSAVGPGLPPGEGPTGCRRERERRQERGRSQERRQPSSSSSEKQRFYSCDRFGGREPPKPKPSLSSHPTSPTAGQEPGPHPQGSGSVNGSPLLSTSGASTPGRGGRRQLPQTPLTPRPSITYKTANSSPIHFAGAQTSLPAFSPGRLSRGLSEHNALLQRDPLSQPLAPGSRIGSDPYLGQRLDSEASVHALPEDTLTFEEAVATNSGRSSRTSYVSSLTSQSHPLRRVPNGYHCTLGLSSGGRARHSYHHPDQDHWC
# Sequence (P54289 25-1103 partner): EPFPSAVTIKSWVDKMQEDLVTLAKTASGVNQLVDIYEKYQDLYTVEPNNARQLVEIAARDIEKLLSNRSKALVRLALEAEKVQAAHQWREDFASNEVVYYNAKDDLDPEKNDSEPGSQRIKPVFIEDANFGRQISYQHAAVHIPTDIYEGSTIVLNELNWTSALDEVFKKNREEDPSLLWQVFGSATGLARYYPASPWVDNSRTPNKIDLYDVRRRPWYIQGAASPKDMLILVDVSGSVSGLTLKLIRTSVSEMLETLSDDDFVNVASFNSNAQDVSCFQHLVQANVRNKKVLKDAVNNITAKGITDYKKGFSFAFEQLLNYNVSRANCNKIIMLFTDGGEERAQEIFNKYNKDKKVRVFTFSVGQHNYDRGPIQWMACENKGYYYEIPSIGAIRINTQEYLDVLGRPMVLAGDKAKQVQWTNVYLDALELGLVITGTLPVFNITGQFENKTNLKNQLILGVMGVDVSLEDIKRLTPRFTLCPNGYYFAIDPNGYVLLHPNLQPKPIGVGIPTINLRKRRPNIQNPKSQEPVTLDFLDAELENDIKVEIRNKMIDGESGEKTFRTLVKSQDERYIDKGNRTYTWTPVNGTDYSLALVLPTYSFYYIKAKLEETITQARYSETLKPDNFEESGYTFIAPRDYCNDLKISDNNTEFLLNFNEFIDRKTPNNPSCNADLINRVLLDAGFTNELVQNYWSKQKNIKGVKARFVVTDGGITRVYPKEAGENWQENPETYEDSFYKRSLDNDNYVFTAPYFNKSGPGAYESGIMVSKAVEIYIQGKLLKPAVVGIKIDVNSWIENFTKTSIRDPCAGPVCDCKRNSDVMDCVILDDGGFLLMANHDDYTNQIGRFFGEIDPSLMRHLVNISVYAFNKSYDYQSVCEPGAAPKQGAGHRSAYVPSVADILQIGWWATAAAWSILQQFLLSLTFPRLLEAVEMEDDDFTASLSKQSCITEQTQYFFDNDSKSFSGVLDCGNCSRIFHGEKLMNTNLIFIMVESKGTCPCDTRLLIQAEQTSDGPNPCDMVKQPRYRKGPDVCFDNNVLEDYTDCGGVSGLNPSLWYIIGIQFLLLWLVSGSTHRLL
# Sequence (P54284 whole entry partner): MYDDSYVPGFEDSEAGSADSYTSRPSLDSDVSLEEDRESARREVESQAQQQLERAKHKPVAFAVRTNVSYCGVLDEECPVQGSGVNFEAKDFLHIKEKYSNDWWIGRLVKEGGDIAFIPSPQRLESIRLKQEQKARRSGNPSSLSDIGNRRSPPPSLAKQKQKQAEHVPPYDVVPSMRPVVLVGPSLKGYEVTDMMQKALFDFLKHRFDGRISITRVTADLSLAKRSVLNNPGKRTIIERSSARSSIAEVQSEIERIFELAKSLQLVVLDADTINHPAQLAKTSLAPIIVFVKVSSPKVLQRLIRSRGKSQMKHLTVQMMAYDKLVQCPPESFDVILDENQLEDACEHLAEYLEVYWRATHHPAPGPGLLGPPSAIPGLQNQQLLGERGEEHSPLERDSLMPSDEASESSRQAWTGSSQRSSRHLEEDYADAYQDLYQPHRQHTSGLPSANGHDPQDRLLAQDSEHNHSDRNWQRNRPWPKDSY
# protocolText: Fluorescent assay for Cav2.2 channels using potassium depolarization to initiate channel opening
# Type: cell-based
# studyConditions: 30 mM K (block of open and inactivated channels); read-out: Cav 2.2 Activity IC50 at 30 mM K
measuredMetric: IC50 (nM)

{"columns": ["smilesRepr", "assayedTarget", "reportedResult"],
 "data": [
  ["Cc1cnc(CNC(=O)C2(NC(=O)c3cc(C(C)(C)C)nc(C(C)(C)C)c3)CCCCC2)cn1", "Human Cav2.2 channels (Homo sapiens)", 53.5],
  ["CC(C)(C)c1cc(C(=O)NC2(C(=O)NCCCN3CCOCC3)CCCCC2)cc(C(C)(C)C)c1", "Human Cav2.2 channels (Homo sapiens)", 253],
  ["CN1CCN(Cc2ccc(CNC(=O)C3(NC(=O)c4cc(C(C)(C)C)nc(C(C)(C)C)c4)CCOCC3)cc2)CC1", "Human Cav2.2 channels (Homo sapiens)", 1040],
  ["Cc1cc(CNC(=O)C2(NC(=O)c3cc(C(C)(C)C)c(O)c(C(C)(C)C)c3)CCCCC2)nn1C", "Human Cav2.2 channels (Homo sapiens)", 129],
  ["COc1ccc(CNC(=O)C2(NC(=O)c3cc(C(C)(C)C)c(O)c(C(C)(C)C)c3)CCCCC2)cc1", "Human Cav2.2 channels (Homo sapiens)", 20.6],
  ["COc1ccc(C(=O)NC2(C(=O)NCc3cccc(C(F)(F)F)c3)CCCCC2)cc1C(C)(C)C#N", "Human Cav2.2 channels (Homo sapiens)", 388],
  ["CC(C)(C)c1cc(C(=O)NC2(C(=O)NCc3ccc(NS(C)(=O)=O)cc3)CC2)cc(C(C)(C)C)c1O", "Human Cav2.2 channels (Homo sapiens)", 1090],
  ["Cc1cc(CNC(=O)C2(NC(=O)c3cc(C(C)(C)C)nc(C(C)(C)C)c3)CCCCC2)nn1C", "Human Cav2.2 channels (Homo sapiens)", 24.5],
  ["CC(C)(C)c1cc(C(=O)NC2(C(=O)NCc3ccc(F)cc3F)CCCCC2)cc(C(C)(C)C)c1", "Human Cav2.2 channels (Homo sapiens)", 80.3]
]}
